System: TO-3-N3 (biotin conjugate)
Assay: pull-down binding Z-score (relative to library population); higher = stronger binding
Conditions: RNA library: Library-2
metric: pull-down binding Z-score

- sequence_text: "GGGCAAGCUGUCUCAAAUGUCC [IAV_invivo_PA_3_Motif_10+IAV_invivo_PA_3_Motif_10]"
  metric: "pull-down binding Z-score"
  result_number: -0.508
- sequence_text: "GUGAACCUGAAUUUGCCUUGGGUUUCCU [hsa-mir-670]"
  metric: "pull-down binding Z-score"
  result_number: -0.509
- sequence_text: "UAGUGGAAAGAGCACUG [hsa-mir-378b]"
  metric: "pull-down binding Z-score"
  result_number: -0.39
- sequence_text: "CUUUAGCUAUUCUGAAUGCCUAAAG [hsa-mir-4662a]"
  metric: "pull-down binding Z-score"
  result_number: -0.298
- sequence_text: "UAUGCCUACAAAAUCCCUCCAGACUGGCAUA [hsa-mir-4666a]"
  metric: "pull-down binding Z-score"
  result_number: -0.599
- sequence_text: "UUUCUCUUAUGUGAAAAAAAAGAAG [hsa-mir-525]"
  metric: "pull-down binding Z-score"
  result_number: -0.283
- sequence_text: "GAAUUUACACCUUUUGAUGUUGUUAGACAAUGCUCAGGUGUUACUUUC"
  metric: "pull-down binding Z-score"
  result_number: 0.167
- sequence_text: "GGUGUUGUUGGAGAAGGUUCCGAAGGUCUUAAUGACAACCUUCUUGAAAUACUCC"
  metric: "pull-down binding Z-score"
  result_number: 0.245
- sequence_text: "UGUGGUAAACAAGCUACA"
  metric: "pull-down binding Z-score"
  result_number: -0.644
- sequence_text: "GUUUUAAUUAUGCUUAUUAUCUUUUGGUUCUCACUUGAACUGCAAGAUCAUAAUGAAAC"
  metric: "pull-down binding Z-score"
  result_number: -0.212
